Property: IC50; scope: individual molecules
Biological target: Eukaryotic elongation factor 2 kinase (Homo sapiens, UniProt O00418)
Sequence (O00418 whole entry): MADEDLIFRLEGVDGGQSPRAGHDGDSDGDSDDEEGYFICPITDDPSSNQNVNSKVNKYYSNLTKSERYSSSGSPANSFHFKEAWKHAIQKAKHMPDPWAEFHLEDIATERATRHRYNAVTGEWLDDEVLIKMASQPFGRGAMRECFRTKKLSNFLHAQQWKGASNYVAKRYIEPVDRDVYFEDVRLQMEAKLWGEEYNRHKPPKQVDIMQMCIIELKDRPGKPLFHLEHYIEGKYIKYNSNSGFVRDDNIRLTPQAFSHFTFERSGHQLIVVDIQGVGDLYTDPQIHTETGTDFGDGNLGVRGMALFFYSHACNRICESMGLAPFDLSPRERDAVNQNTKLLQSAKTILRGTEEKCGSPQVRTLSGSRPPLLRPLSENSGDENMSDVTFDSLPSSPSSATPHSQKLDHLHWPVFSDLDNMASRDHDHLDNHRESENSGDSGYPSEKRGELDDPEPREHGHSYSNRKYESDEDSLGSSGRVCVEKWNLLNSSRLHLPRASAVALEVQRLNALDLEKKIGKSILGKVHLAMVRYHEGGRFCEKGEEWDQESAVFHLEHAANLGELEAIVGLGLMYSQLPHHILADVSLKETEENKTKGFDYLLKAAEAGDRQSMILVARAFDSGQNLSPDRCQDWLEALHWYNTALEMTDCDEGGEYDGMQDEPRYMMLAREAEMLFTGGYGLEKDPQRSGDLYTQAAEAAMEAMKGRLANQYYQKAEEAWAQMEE
Assay: Inhibition of eEF2K (unknown origin) using peptide MH-1 as substrate after 2 hrs by ADP-Glo luminescent assay
Experimental readout: IC50 (µM)

molecule="O=C(O)CC(NC(=O)c1cccc(Br)c1)c1ccccc1F (configuration not stated)" prefix_operator=> observed_result=50
molecule="COc1ccccc1C(=O)NC(CC(=O)O)c1ccc(Cl)cc1Cl (configuration not stated)" prefix_operator=> observed_result=50
molecule="O=C(O)CC(NC(=O)c1cccc(Br)c1)c1ccc(Cl)cc1Cl (configuration not stated)" prefix_operator== observed_result=28.4
molecule="O=C(O)CC(NS(=O)(=O)c1ccccc1)c1ccc(Cl)cc1Cl (configuration not stated)" prefix_operator== observed_result=33.4
molecule="O=C(O)CC(NS(=O)(=O)c1ccc(OC(F)(F)F)cc1)c1ccccc1 (configuration not stated)" prefix_operator=> observed_result=50
molecule="CC(C)(C)c1ccc(C(CC(=O)O)NC(=O)c2ccc(C(F)(F)F)cc2)cc1 (configuration not stated)" prefix_operator== observed_result=22.6
molecule="O=C(O)CC(NC(=O)c1cccc(Br)c1)c1ccccc1 (configuration not stated)" prefix_operator=> observed_result=50
molecule="O=C(O)CC(NS(=O)(=O)c1cccc([N+](=O)[O-])c1)c1ccc(Cl)cc1Cl (configuration not stated)" prefix_operator== observed_result=44.5
molecule="CC(C)(C)c1ccc(C(CC(=O)O)NS(=O)(=O)c2ccc(C(F)(F)F)cc2)cc1 (configuration not stated)" prefix_operator== observed_result=18.4
molecule="O=C(O)CC(NS(=O)(=O)c1ccccc1Br)c1ccccc1 (configuration not stated)" prefix_operator=> observed_result=50
molecule="COc1ccc(C(=O)NC(CC(=O)O)c2ccc(C(C)(C)C)cc2)cc1 (configuration not stated)" prefix_operator== observed_result=47.9
molecule="COc1ccccc1C(=O)NC(CC(=O)O)c1ccccc1 (configuration not stated)" prefix_operator=> observed_result=50
molecule="CC(C)(C)c1ccc(C(CC(=O)O)NC(=O)c2ccc(F)cc2)cc1 (configuration not stated)" prefix_operator== observed_result=31.6
molecule="N#Cc1ccc(S(=O)(=O)NC(CC(=O)O)c2ccc(Cl)cc2Cl)cc1 (configuration not stated)" prefix_operator== observed_result=5.5
molecule="COc1ccc(C(=O)NC(CC(=O)O)c2ccc(Cl)cc2Cl)cc1 (configuration not stated)" prefix_operator== observed_result=44.4
molecule="O=C(O)CC(NC(=O)c1ccc(C(F)(F)F)cc1)c1ccccc1F (configuration not stated)" prefix_operator== observed_result=44.5
molecule="CC(C)(C)c1ccc(C(CC(=O)O)NS(=O)(=O)c2ccc(F)cc2)cc1 (configuration not stated)" prefix_operator== observed_result=38.5
molecule="O=C(O)CC(NC(=O)c1ccc(Cl)cc1Cl)c1ccccc1 (configuration not stated)" prefix_operator== observed_result=29.3
molecule="O=C(O)CC(NC(=O)c1ccc(C(F)(F)F)cc1)c1ccc(Cl)cc1Cl (configuration not stated)" prefix_operator== observed_result=11.7
molecule="O=C(O)CC(NS(=O)(=O)c1ccccc1)c1ccccc1F (configuration not stated)" prefix_operator=> observed_result=50
molecule="O=C(O)CC(NC(=O)c1c(Cl)cccc1Cl)c1ccc(Cl)cc1Cl (configuration not stated)" prefix_operator=> observed_result=50
molecule="O=C(O)CC(NS(=O)(=O)c1ccccc1Br)c1ccc(Cl)cc1Cl (configuration not stated)" prefix_operator=> observed_result=50

Where do these numbers come from? They come from ChEMBL document CHEMBL4138216.
